readout.type: logP

Below: 5 compounds and their reported logP.
compound	readout.type	result
COc1ccc(C(c2ccc(OC)cc2)C(C)(C)C)cc1	logP	3.57
CCOc1ccc(C(c2ccc(OCC)cc2)C(C)(Cl)Cl)cc1	logP	3.64
CCOc1ccc(C(c2ccc(OCC)cc2)C(Cl)Cl)cc1	logP	3.65
CCOc1ccc(C(c2ccc(OCC)cc2)C(C)[N+](=O)[O-])cc1 (stereo unspecified)	logP	3.45
CCOc1ccc(C(c2ccc(C)cc2)C(C)[N+](=O)[O-])cc1 (stereo unspecified)	logP	3.46

Below: the item to evaluate.
// logP value for CCOc1ccc(C(c2ccc(C)cc2)C(C)Cl)cc1 (stereo unspecified) : 3.19
